# system_under_test: recombinant human ACC2 (Homo sapiens (Human))
# Sequence (O00763 27-2458): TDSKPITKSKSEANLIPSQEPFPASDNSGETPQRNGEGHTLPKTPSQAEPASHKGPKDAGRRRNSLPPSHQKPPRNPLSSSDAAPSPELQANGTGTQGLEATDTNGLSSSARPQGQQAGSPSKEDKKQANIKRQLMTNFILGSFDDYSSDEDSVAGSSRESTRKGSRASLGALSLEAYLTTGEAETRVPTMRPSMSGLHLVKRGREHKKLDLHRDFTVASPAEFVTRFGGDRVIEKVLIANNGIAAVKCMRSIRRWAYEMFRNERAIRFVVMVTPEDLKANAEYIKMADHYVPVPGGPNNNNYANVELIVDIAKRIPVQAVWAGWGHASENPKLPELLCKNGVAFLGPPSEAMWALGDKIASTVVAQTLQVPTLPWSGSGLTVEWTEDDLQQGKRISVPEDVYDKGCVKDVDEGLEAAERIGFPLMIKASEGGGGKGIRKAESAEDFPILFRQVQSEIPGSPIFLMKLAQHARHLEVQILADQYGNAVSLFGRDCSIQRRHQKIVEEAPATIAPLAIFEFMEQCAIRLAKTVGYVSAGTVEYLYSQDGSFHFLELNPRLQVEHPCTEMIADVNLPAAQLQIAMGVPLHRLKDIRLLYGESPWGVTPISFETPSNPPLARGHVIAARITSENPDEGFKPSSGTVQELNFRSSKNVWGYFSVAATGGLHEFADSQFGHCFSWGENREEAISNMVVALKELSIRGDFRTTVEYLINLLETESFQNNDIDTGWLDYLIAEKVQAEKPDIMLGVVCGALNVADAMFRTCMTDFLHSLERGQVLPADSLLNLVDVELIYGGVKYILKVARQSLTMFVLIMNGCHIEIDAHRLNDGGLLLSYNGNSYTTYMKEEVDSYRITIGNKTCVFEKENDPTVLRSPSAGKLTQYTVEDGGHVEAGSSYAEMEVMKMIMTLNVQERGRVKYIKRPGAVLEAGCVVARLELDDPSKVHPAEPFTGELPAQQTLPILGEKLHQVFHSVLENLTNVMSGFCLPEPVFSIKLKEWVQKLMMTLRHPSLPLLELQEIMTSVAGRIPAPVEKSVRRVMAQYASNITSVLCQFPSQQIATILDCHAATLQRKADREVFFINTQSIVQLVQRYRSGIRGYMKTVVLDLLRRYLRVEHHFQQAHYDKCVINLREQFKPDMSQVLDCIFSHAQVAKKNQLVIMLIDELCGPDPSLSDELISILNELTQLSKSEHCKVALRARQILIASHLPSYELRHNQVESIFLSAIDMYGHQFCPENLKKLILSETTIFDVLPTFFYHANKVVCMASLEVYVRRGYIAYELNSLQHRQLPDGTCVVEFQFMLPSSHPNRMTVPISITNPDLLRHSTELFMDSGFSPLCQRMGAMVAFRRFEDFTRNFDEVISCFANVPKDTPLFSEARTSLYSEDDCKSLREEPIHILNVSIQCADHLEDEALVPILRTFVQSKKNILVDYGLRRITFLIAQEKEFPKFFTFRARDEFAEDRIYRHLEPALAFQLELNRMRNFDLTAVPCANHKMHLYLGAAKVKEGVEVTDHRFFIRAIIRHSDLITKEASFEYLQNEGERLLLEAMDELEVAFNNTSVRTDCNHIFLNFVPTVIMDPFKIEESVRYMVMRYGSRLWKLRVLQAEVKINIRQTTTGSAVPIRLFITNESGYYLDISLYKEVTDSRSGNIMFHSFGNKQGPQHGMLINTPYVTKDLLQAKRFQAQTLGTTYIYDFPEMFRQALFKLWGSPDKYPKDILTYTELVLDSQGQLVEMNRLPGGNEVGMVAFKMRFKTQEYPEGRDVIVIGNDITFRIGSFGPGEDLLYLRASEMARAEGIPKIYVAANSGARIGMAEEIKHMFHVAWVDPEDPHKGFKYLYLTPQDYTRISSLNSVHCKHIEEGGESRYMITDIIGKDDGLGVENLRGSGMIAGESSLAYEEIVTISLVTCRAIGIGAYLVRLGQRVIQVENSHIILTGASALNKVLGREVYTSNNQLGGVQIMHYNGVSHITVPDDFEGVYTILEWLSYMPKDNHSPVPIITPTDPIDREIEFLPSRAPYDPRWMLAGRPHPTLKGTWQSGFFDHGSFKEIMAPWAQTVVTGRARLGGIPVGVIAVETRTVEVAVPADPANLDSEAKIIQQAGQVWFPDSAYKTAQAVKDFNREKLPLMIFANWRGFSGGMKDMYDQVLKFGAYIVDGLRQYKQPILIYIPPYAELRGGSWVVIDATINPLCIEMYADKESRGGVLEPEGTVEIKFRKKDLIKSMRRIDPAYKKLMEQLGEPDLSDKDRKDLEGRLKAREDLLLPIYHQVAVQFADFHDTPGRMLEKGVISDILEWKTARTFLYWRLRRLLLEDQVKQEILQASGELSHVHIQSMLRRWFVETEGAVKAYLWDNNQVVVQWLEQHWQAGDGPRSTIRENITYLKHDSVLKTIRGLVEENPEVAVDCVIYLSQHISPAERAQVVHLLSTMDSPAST
# experiment: Measurement of inhibitory activity on human ACC2 (MALDI-TOF MS, acetyl CoA to malonyl CoA conversion)
# Format: biochemical
# measurement_setup: Tables 155-159
# Text: Preparation 1: Preparation of Recombinant Human ACC2 After a cDNA encoding human ACC2 (27 amino acid residue to 2458 amino acid residues from the N-terminus) was cloned from human kidney cDNA library (Clontech), human ACC2 gene containing His-tag sequence at 5′ terminus was inserted into pFastBac1 (Invitrogen). Recombinant baculovirus was generated using Bac-to-Bac baculovirus expression system (Invitrogen) according to the manufacturer's protocol. […]
// classify(record): look up IC50 in ranges 1: < 20 nM; 2: ≥ 20 nM and < 100 nM; 3: ≥ 100 nM

smiles_str=CC(=O)N[C@@H](C)CO[C@H]1C[C@H](COc2ccc3nc(OC4CC4)sc3c2F)C1 class_name=1
smiles_str=CC(=O)N[C@@H](C)CO[C@H]1CC[C@H](Oc2ccc3nc(N4CC(F)(F)C4)sc3n2)CC1 class_name=1
smiles_str=CC(=O)N[C@@H](C)CO[C@H]1C[C@H](COc2cc3sc(C(C)C)nc3cn2)C1 class_name=3
smiles_str=CC(=O)N[C@@H](C)CO[C@H]1CC[C@H](Oc2ncc3nc(OCC4(C#N)CC4)sc3c2F)CC1 class_name=3
smiles_str=CC(=O)N[C@@H](C)CO[C@H]1C[C@H](COc2ccc3nc(N4CCC4)sc3n2)C1 class_name=2
smiles_str=CC(=O)N[C@@H](C)CO[C@H]1CC[C@H](Oc2ccc3nc(OC(C)C)sc3c2Cl)CC1 class_name=1
smiles_str=CC(=O)N[C@@H](C)CO[C@H]1C[C@H](COc2ccc3nc(OC[C@H](C)F)sc3n2)C1 class_name=1
smiles_str=CC(=O)N[C@@H](C)CO[C@H]1CC[C@H](Oc2ccc3nc(OCc4ccccc4)n(C)c3n2)CC1 class_name=1
smiles_str=CC(=O)N[C@@H](C)CO[C@H]1C[C@H](COc2ccc3nc(OCc4ccccc4)n(C)c3n2)C1 class_name=2
smiles_str=CC(=O)N[C@@H](C)CO[C@H]1CC[C@H](Oc2nc3cnc(OC[C@@H](C)F)c(Cl)c3n2C)CC1 class_name=1
smiles_str=CC(=O)N[C@@H](C)CO[C@H]1CC[C@H](Oc2nc3cc(Br)ccc3s2)CC1 class_name=2
smiles_str=CC(=O)N[C@@H](C)CO[C@H]1C[C@H](COc2ccc3nc(C(C)(F)F)sc3c2Cl)C1 class_name=3
smiles_str=CC(=O)N[C@@H](C)CO[C@H]1CC[C@H](Oc2ncc3cc(OCC4CC4)ccc3n2)CC1 class_name=3
smiles_str=CC(=O)N[C@@H](C)CO[C@H]1CC[C@H](Oc2nc3cnc(OC4CC4)c(Cl)c3n2C)CC1 class_name=1
smiles_str=CC(=O)N[C@@H](C)CO[C@H]1C[C@H](COc2ccc3nc(OC4(C)CC4)sc3n2)C1 class_name=2
smiles_str=CCn1ccc2c(OC[C@H]3C[C@H](OC[C@H](C)NC(C)=O)C3)ncnc21 class_name=3
smiles_str=CCN(C)c1nc2ccc(O[C@H]3CC[C@H](OC[C@H](C)NC(C)=O)CC3)c(F)c2s1 class_name=2
smiles_str=C[C@@H](CO[C@H]1CC[C@H](Oc2nc3c(F)cc(OC4CC4)c(F)c3n2C)CC1)NC(=O)CC#N class_name=1
smiles_str=CC(=O)N[C@@H](C)CO[C@H]1C[C@@H](COc2ccc3nc(N4CC(F)(F)C4)sc3n2)C1 class_name=2
smiles_str=CC(=O)N[C@@H](C)CO[C@H]1C[C@H](COc2ncnc(NCc3ccccc3)c2Cl)C1 class_name=2
smiles_str=CC(=O)N[C@@H](CC#N)CO[C@H]1CC[C@H](Oc2nc3cnc(OCC(F)F)c(Cl)c3n2C)CC1 class_name=3
smiles_str=CC(=O)N[C@@H](C)CO[C@H]1CC[C@H](Oc2ncc(-c3ncc(C#N)cn3)cc2F)CC1 class_name=2
smiles_str=CCOc1cc(Cl)c2nc(O[C@H]3CC[C@H](OC[C@H](C)NC(C)=O)CC3)n(C)c2c1Cl class_name=1
smiles_str=CC(=O)N[C@@H](C)CO[C@H]1C[C@H](COc2nccc(OCC(F)(F)F)c2Cl)C1 class_name=3
smiles_str=CC(=O)N[C@@H](C)CO[C@H]1CC[C@H](Oc2ccc3nc(OCC4CC4)n(C)c3n2)CC1 class_name=2
smiles_str=CO[C@H]1C[C@H](Oc2nc3ccc(OC[C@H]4C[C@H](OC[C@H](C)NC(C)=O)C4)nc3s2)C1 class_name=2
smiles_str=CCOc1nc2ccc(O[C@H]3CC[C@H](OC[C@H](C)NC(C)=O)CC3)c(F)c2n1C class_name=3

---

Reported values of pIC50 for individual entries
# system_under_test: recombinant human ACC2 (Homo sapiens (Human))
# experiment: Measurement of inhibitory activity on human ACC2 (MALDI-TOF MS, acetyl CoA to malonyl CoA conversion)
# Format: biochemical
# measurement_setup: Tables 155-159
# Source text: Preparation 1: Preparation of Recombinant Human ACC2 After a cDNA encoding human ACC2 (27 amino acid residue to 2458 amino acid residues from the N-terminus) was cloned from human kidney cDNA library (Clontech), human ACC2 gene containing His-tag sequence at 5′ terminus was inserted into pFastBac1 (Invitrogen). Recombinant baculovirus was generated using Bac-to-Bac baculovirus expression system (Invitrogen) according to the manufacturer's protocol. […]
pIC50: −log10 of the molar value.
experimental_readout: pIC50

molecule=CC(=O)N[C@@H](C)CO[C@H]1C[C@H](COc2ncnc(OCc3cc(C(F)(F)F)ccn3)c2Cl)C1 observed_result=7.72
molecule="CC(=O)N[C@@H](C)CO[C@H]1CC[C@H](Oc2ncc(-c3ncc(F)cn3)cc2F)CC1 [Compound I-542]" observed_result=8.22
molecule="CC(=O)N[C@@H](C)CO[C@H]1C[C@H](COc2nccc(OC3C[C@@H]4CC[C@@H]3C4)c2Cl)C1 (stereo partly drawn) [Compound I-365]" observed_result=7.00
molecule=CCOc1ccc2nc(O[C@H]3CC[C@H](OC[C@H](C)NC(C)=O)CC3)n(C)c2c1-c1ccccc1 observed_result=6.34
molecule=CC(=O)N[C@@H](C)CO[C@H]1C[C@H](COc2ccc3nc(OC(C)C)sc3n2)C1 observed_result=8.30
molecule="CC(=O)N[C@@H](C)CO[C@H]1CC[C@H](Oc2cc3sc(OC(C)CF)nc3cn2)CC1 (stereo partly drawn)" observed_result=7.32
molecule=CC(=O)N[C@@H](C)CO[C@H]1CC[C@H](Oc2ccc3nc(CCC(F)(F)F)n(C)c3n2)CC1 observed_result=7.39
molecule=CC(=O)N[C@@H](C)CO[C@H]1C[C@H](COc2ncnc(OCc3ccc(Cl)nn3)c2Cl)C1 observed_result=6.24
molecule=CC(=O)N[C@@H](C)CO[C@H]1C[C@H](COc2nccc(N3CCCC3)c2C)C1 observed_result=6.84
molecule=CC(=O)N[C@@H](C)CO[C@H]1CC[C@H](Oc2ccc3nc(OC4(C)CC4)sc3c2F)CC1 observed_result=7.54
molecule=CC(=O)N[C@@H](C)[C@H](C)O[C@H]1CC[C@H](Oc2nc3cnc(OCC(F)F)c(Cl)c3n2C)CC1 observed_result=7.74
molecule=CC(=O)N[C@@H](C)CO[C@H]1C[C@H](COc2ccc3nc(C(C)(F)F)sc3c2)C1 observed_result=7.05
molecule=CCOc1cc2c(nc(O[C@H]3CC[C@H](OC[C@H](C)NC(C)=O)CC3)n2C)c(Cl)c1Cl observed_result=7.00
molecule=CC(=O)N[C@@H](C)CO[C@H]1C[C@](C)(COc2nccc(-c3ccc(F)cc3)c2Cl)C1 observed_result=7.74
molecule=CCOc1ncc2nc(O[C@H]3CC[C@H](OC[C@H](C)NC(C)=O)CC3)n(C)c2c1Cl observed_result=7.82

---

# system_under_test: recombinant human ACC2 (Homo sapiens (Human))
# experiment: Measurement of inhibitory activity on human ACC2 (MALDI-TOF MS, acetyl CoA to malonyl CoA conversion)
# Format: biochemical
# measurement_setup: Tables 155-159
experimental_readout: IC50

smiles_str=CC(=O)N[C@@H](C)CO[C@H]1CC[C@H](Oc2ccc3nc(OCC(F)(F)F)n(C)c3n2)CC1 system_under_test="recombinant human ACC2 (Homo sapiens (Human))" observed_result="13 nM"
smiles_str=CC(=O)N[C@@H](C)CO[C@H]1C[C@H](COc2ccc3nc(OC4CCC4)sc3n2)C1 system_under_test="recombinant human ACC2 (Homo sapiens (Human))" observed_result="4 nM"
smiles_str=CC(=O)N[C@@H](C)CO[C@H]1C[C@H](COc2nccc(-c3ncc(C(F)(F)F)cn3)c2Cl)C1 system_under_test="recombinant human ACC2 (Homo sapiens (Human))" observed_result="63 nM"
smiles_str=CC(=O)N[C@@H](C)CO[C@H]1CC[C@H](Oc2nc3c(Cl)ccc(F)c3n2C)CC1 system_under_test="recombinant human ACC2 (Homo sapiens (Human))" observed_result="140 nM"
